test system: S. typhimurium TA104 containing pMOL1067; conditions: TA104 pMOL1067
Quick rule for you: MINIMAL DETECTED CONCENTRATION (MDC) under 0.6 nmol/assay gets fulfilled, anything else gets not fulfilled.

COMPOUND	TARGET	ANSWER_LABEL
c1ccc2c(c1)ccc1c3ccccc3ccc21	S. typhimurium TA104 containing pMOL1067	fulfilled
CO[C@@H]1[C@@H](OC(N)=O)[C@@H](O)[C@H](Oc2ccc3c(O)c(NC(=O)c4ccc(O)c(CC=C(C)C)c4)c(=O)oc3c2C)OC1(C)C	S. typhimurium TA104 containing pMOL1067	fulfilled
COS(C)(=O)=O [MMS, Methylmethanesulphonate]	S. typhimurium TA104 containing pMOL1067	not fulfilled

[ask] Given the entry c1ccc2c(c1)cc1ccc3cccc4ccc2c1c34 , would its reported MINIMAL DETECTED CONCENTRATION (MDC) be below 0.6 nmol/assay?
[reply] fulfilled

[ask] Is 0.6 nmol/assay strictly greater than the compound's reported MINIMAL DETECTED CONCENTRATION (MDC)? compound: OO [H2O2, hydrogen peroxide]
[reply] not fulfilled

----------
tested on: S. typhimurium TA104 containing pMOL890; settings: TA104 pMOL890
EXPERIMENTAL_ENDPOINT: MINIMAL DETECTED CONCENTRATION (MDC) (nmol/assay)
The reply should contain only the number, in nmol/assay.

These solved cases illustrate the format of a correct answer.
MOLECULE	UNIT_TAG	MINIMAL DETECTED CONCENTRATION (MDC)
CO[C@@H]1[C@@H](OC(N)=O)[C@@H](O)[C@H](Oc2ccc3c(O)c(NC(=O)c4ccc(O)c(CC=C(C)C)c4)c(=O)oc3c2C)OC1(C)C	nmol/assay	1.26
c1ccc2c(c1)cc1ccc3cccc4ccc2c1c34	nmol/assay	0.32
OO [H2O2, hydrogen peroxide]	nmol/assay	3.8
c1ccc2c(c1)ccc1c3ccccc3ccc21	nmol/assay	2.2

Proceeding to the next molecule to report its MINIMAL DETECTED CONCENTRATION (MDC).
[ask] I have this molecule here, COS(C)(=O)=O [MMS, Methylmethanesulphonate] , and I need its recorded MINIMAL DETECTED CONCENTRATION (MDC).
[reply] 7.3

----------
test system: S. typhimurium TA98 containing pMOL890; settings: TA98 pMOL890
Form field: MINIMAL DETECTED CONCENTRATION (MDC) (one value per entry).
Numeric answer only, unit nmol/assay assumed.

COMPOUND	MINIMAL DETECTED CONCENTRATION (MDC) [nmol/assay]
CO[C@@H]1[C@@H](OC(N)=O)[C@@H](O)[C@H](Oc2ccc3c(O)c(NC(=O)c4ccc(O)c(CC=C(C)C)c4)c(=O)oc3c2C)OC1(C)C [novobiocine]	0.57
c1ccc2c(c1)cc1ccc3cccc4ccc2c1c34 [BαP, benzo-α-pyrene]	1.59
OO [H2O2, hydrogen peroxide]	8.5
c1ccc2c(c1)ccc1c3ccccc3ccc21 [chrysene]	2.2

Turning now to a further compound:
[ask] # get_value(readout='MINIMAL DETECTED CONCENTRATION (MDC)', item= COS(C)(=O)=O [MMS, Methylmethanesulphonate] )
[reply] 7.3

----------
system: S. typhimurium TA104 containing pMOL1066; settings: TA104 pMOL1066
EXPERIMENTAL_ENDPOINT: MINIMAL DETECTED CONCENTRATION (MDC) (nmol/assay)
The figure you give is taken to be in nmol/assay; do not add the unit.

Some molecules with recorded MINIMAL DETECTED CONCENTRATION (MDC):
MOLECULE	MEASURED_RESULT
OO [H2O2, hydrogen peroxide]	11.8
c1ccc2c(c1)ccc1c3ccccc3ccc21	1.095
CO[C@@H]1[C@@H](OC(N)=O)[C@@H](O)[C@H](Oc2ccc3c(O)c(NC(=O)c4ccc(O)c(CC=C(C)C)c4)c(=O)oc3c2C)OC1(C)C	1.26
c1ccc2c(c1)cc1ccc3cccc4ccc2c1c34	0.16

Read the next record carefully.
[ask] MINIMAL DETECTED CONCENTRATION (MDC) for COS(C)(=O)=O [MMS, Methylmethanesulphonate] ?
[reply] 7.3
